Tested on: Microtubule-associated protein tau (Homo sapiens) (UniProt P10636)
Sequence (P10636 561-689 P618L limits assumed): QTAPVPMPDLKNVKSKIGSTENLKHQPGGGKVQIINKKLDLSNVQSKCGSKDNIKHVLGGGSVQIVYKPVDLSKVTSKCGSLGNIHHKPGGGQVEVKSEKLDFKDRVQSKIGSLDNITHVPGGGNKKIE
Test description: Confirmation Concentration-Response Assay for Inhibitors of Tau Fibril Formation, Thioflavin T Binding
Conditions used: recombinant tau K18 P301L heparin fibrillization, ThT fluorescence; series mostly up to 100 µM
Results filed as inconclusive are left out. The source made the active and inactive calls. The call rests on the fitted dose curve; in most records, active means well fitted inhibition curve with a large enough effect; inconclusive means small, poorly fitted or top-dose-only effect; inactive means flat fitted curve, though single readings scatter.
Outcome codes: 1 for active, 0 for inactive

| Structure notation | Cat |
| --- | --- |
| Cc1cccc(NC(=O)c2c(NC(=O)c3ccccc3)sc3c2CCCC3)c1 | 1 |
| O=C(NCCCO)Nc1ccc2nc(-c3ccco3)c(-c3ccco3)nc2c1 | 1 |
| O=S(=O)(c1ccc(NC(=S)N/N=C/c2ccc(N3CCOCC3)cc2)cc1)N1CCOCC1 | 0 |
| Nc1nc2cc(S(=O)(=O)NC3=NCCCCC3)ccc2s1 | 1 |
| CCOC(=O)c1nn(-c2ccc(F)cc2)c(=O)c2c(N)scc12 | 1 |

====

Tested on: Microtubule-associated protein tau (Homo sapiens) (UniProt P10636)
Test description: Confirmation Concentration-Response Assay for Inhibitors of Tau Fibril Formation, Thioflavin T Binding
Conditions used: recombinant tau K18 P301L heparin fibrillization, ThT fluorescence; series mostly up to 100 µM
Text: NIH Molecular Libraries Probe Production Network [MLPCN] NIH Chemical Genomics Center [NCGC] MLPCN Grant: X01 MH083262-01 Assay Provider: Carlo Ballatore, University of Pennsylvania NCGC Assay Overview: The microtubule-associated protein tau is an abundant protein in the axons of neurons that stabilizes microtubules. […] This assay monitors tau fibrillization by Thioflavin T (ThT) fluorescence. […]
Records with an inconclusive call do not appear. Activity calls are given as the source filed them. Calls come from the whole dose curve; as a rule, active = well fitted inhibition curve with a large enough effect; inconclusive = small, poorly fitted or top-dose-only effect; inactive = flat fitted curve, though single readings scatter.

| Structure notation | Potency |
| --- | --- |
| COc1ccc(Cl)cc1NC(=O)c1c(NCc2sccc2C)sc2c1CCCC2 | 1 µM (active) |
| Nc1scc2c(C(=O)N3CCOCC3)nn(-c3ccccc3)c(=O)c12 | 11.2 µM (active) |
| Cc1ccc(N(C)S(=O)(=O)c2nnc(NC(=O)C3CCCCC3)s2)cc1 | inactive |
| CCOC(=O)c1c(N)sc2c1CN(C)CC2 | inactive |
| S=C1Cc2ccccc2N1 | 0.631 µM (active) |
| CC(=O)Nc1nc(C)c(-c2csc(Nc3ccc(O)cc3)n2)s1 | 15.8 µM (active) |
| O=C(Nc1ccccc1)Nc1ccccc1 | inactive |
| O=C(O)CSc1cc(NS(=O)(=O)c2cccc([N+](=O)[O-])c2)c2ccccc2c1O | 2 µM (active) |
| CCOC(=O)c1nn(-c2ccccc2)c(=O)c(C#N)c1C | inactive |
| O=C(NCc1cccnc1)C1CCN(S(=O)(=O)c2cccs2)CC1 | inactive |
| COc1c(Cl)cccc1NC(=O)c1c(NC(=O)Cc2ccccc2)sc2c1CCCC2 | inactive |

====

Tested on: Microtubule-associated protein tau (Homo sapiens) (UniProt P10636)
Test description: Confirmation Concentration-Response Assay for Inhibitors of Tau Fibril Formation, Thioflavin T Binding
Conditions used: recombinant tau K18 P301L heparin fibrillization, ThT fluorescence; series mostly up to 100 µM
From the text: NIH Molecular Libraries Probe Production Network [MLPCN] NIH Chemical Genomics Center [NCGC] MLPCN Grant: X01 MH083262-01 Assay Provider: Carlo Ballatore, University of Pennsylvania NCGC Assay Overview: The microtubule-associated protein tau is an abundant protein in the axons of neurons that stabilizes microtubules. […] This assay monitors tau fibrillization by Thioflavin T (ThT) fluorescence. […]
Records with an inconclusive call do not appear. Active and inactive are the calls of the source. Calls follow the shape of the dose curve; as a rule, active = well fitted inhibition curve with a large enough effect; inconclusive = small, poorly fitted or top-dose-only effect; inactive = flat fitted curve, though single readings scatter.
Outcomes: active, inactive

| Molecule | Cat |
| --- | --- |
| COC(=O)c1c(NC(=O)C(C)(C)C)sc2c1C(C(=O)OC)CC2 (stereo not drawn) | inactive |
| COC(=O)C1CCc2sc(NC(=O)Cc3ccccc3)c(C(=O)Nc3ccc(Cl)cc3)c21 (stereo not drawn) | inactive |
| Nc1cc(-c2ccncc2)c[nH]c1=O | active |
| CCN(CC)C(=O)c1nn(-c2ccc(OC)cc2)c(=O)c2c(N)scc12 | active |
| Cn1ncc(Cl)c1C(=O)Nc1cccc(Cl)c1 | active |
| Cc1ccc(NC(=O)c2c(NC(=O)Cc3ccccc3)sc3c2CCCC3)cc1 | inactive |
| CN(c1ccccc1)S(=O)(=O)c1nnc(NC(=O)C2CCCCC2)s1 | active |
| CCOC(=O)c1nn(-c2ccc(Cl)cc2)c(=O)c2c(N)scc12 | active |
| CCOC(=O)c1nn(-c2ccc(OC)cc2)c(=O)c2c(NC(=O)Cc3ccccc3)scc12 | inactive |
| COc1ccc(-n2nc(C(=O)O)c3csc(N)c3c2=O)cc1 | active |
| Nc1scc2c(CO)nn(-c3ccccc3)c(=O)c12 | active |
| Cn1sc(NC(=O)c2ccccc2)nc1=O | inactive |
| Nc1scc2c(C(=O)NCc3ccccc3)nn(-c3ccccc3)c(=O)c12 | active |

====

Tested on: Microtubule-associated protein tau (Homo sapiens)
Test description: Confirmation Concentration-Response Assay for Inhibitors of Tau Fibril Formation, Thioflavin T Binding
Conditions used: recombinant tau K18 P301L (four-repeat tau fragment) heparin fibrillization, ThT fluorescence; series mostly up to 100 µM
Results filed as inconclusive are left out. Calls of active or inactive are those of the source. Calls come from the whole dose curve; as a rule, active = well fitted inhibition curve with a large enough effect; inconclusive = small, poorly fitted or top-dose-only effect; inactive = flat fitted curve, though single readings scatter.
Possible outcomes: active, inactive

| Compound | Cat |
| --- | --- |
| COC(=O)c1c(NC(=O)CCCOc2ccc(C)cc2)sc2c1C(C(=O)OC)CC2 (configuration not stated) | active |
| CCN(c1ccccc1)S(=O)(=O)c1nnc(NC(=O)C(C)(C)C)s1 | inactive |
| CC(=O)Nc1nc(C)c(-c2csc(Nc3cccc([N+](=O)[O-])c3)n2)s1 | active |
| O=C(Nc1cccc(-c2nc3ccccc3o2)c1)c1cc([N+](=O)[O-])ccc1N1CCOCC1 | inactive |
| Cc1ccc(NC(=O)N2CCN(c3ccccn3)CC2)cc1 | inactive |
| COc1ccc(NC(=O)Cn2cc(S(=O)(=O)N3CCN(c4ccccc4F)CC3)c3ccccc3c2=O)cc1Cl | inactive |
| O=C(Cc1ccccc1)Nc1sc2c(c1C(=O)Nc1cccc(Cl)c1)CCCC2 | inactive |
| CCn1nccc1C(=O)Nc1cc(Cl)cc(Cl)c1 | inactive |
| O=C(O)CC1S/C(=N/N=C/c2ccc(-c3ccc(Cl)cc3[N+](=O)[O-])o2)NC1=O (configuration not stated) | active |
| COc1ccc(OC)c(NC(=O)c2c(NCc3cccs3)sc3c2CCCC3)c1 | inactive |
| O=C(O)CC1S/C(=N/N=C/c2ccc(-c3ccccc3[N+](=O)[O-])o2)NC1=O (configuration not stated) | active |
| COc1cccc(/C=C2/SC(=S)N(CC(=O)Nc3nccs3)C2=O)c1 | inactive |
| Cc1nc2ccccc2oc1=O | inactive |
| CC1CCc2c(sc(NC(=O)Cc3ccccc3)c2C(=O)Nc2ccc(Cl)cc2)C1 (configuration not stated) | inactive |
| COC(=O)c1c(NC(=O)CCCOc2cccc(C)c2)sc2c1C(C(=O)OC)CC2 (configuration not stated) | active |
| COc1ccc(S(=O)(=O)Nc2cc(Sc3ncn[nH]3)c(O)c3ccccc23)cc1 | active |
| CCOC(=O)c1ccc(S(=O)(=O)Nc2nc3cc(S(=O)(=O)NC4=NCCCCC4)ccc3s2)cc1 | active |
| Cc1[nH]c(=O)c(C#N)cc1-c1ccncc1 | inactive |
| COC(=O)CSc1nc2ccc(NC(=O)CSc3nnnn3Cc3ccccc3)cc2s1 | inactive |
| O=C(Nc1nnc(S(=O)(=O)Nc2ccccc2)s1)C1CCCCC1 | inactive |
| NCCc1ccc(O)c(O)c1 | inactive |
| COc1ccc(CNC(=O)Cn2nc(C)n3cccc3c2=O)cc1 | inactive |
